Hello, the source for this data is paper PMC6479946, in case you need it.

Experiment: in vivo
Conditions: male, Sprague-Dawley, rat, in vivo, po, 40 mg/kg, AUC(0-t) of HAR, rat plasma; oral HAR 40.0 mg/kg + MEM 5.0 mg/kg (HAR-M + MEM); n = 8, mean ± SD
metric-name: AUC(0-t) (ng·h/mL)
Just the number please, in ng·h/mL, no unit attached.

Task item: // query AUC(0-t) value for entry COc1ccc2c(c1)[nH]c1c(C)nccc12
Reply: 139

----------
Assay: in vivo
Conditions: male, Sprague-Dawley, rat, in vivo, po, 80 mg/kg, Tmax of HAR, rat plasma; oral HAR 80.0 mg/kg alone (HAR-H); n = 8, mean ± SD
Method: The analytes were separated on an ACQUITY UPLC BEH C18 column (2.1 mm × 50 mm, 1.7 μm, Waters, Milford, USA). […] The flow rate was 0.3 mL/min. The column and sample-tray temperature were kept at 40 °C and 4 °C, respectively. The injection volume was 5.0 μL using a partial loop with needle over fill mode. […] All standard curves and quantitative data were processed by Agilent Mass Hunter Quantitative Analysis Workstation Software. […]
metric-name: Tmax (min)
Just the number please, in min, no unit attached.

Task item: // query Tmax value for entry COc1ccc2c(c1)[nH]c1c(C)nccc12
Reply: 20.6

----------
Test: in vivo
Conditions: male, Sprague-Dawley, rat, in vivo, po, 40 mg/kg, CL/F of HAR, rat plasma; oral HAR 40.0 mg/kg + MEM 5.0 mg/kg (HAR-M + MEM); n = 8, mean ± SD
metric-name: CL/F (L/h/kg)
Just the number please, in L/h/kg, no unit attached.

Task item: // query CL/F value for entry COc1ccc2c(c1)[nH]c1c(C)nccc12 [HAR]
Reply: 278

----------
Experiment: Pharmacokinetic study in rats after oral HAR and MEM alone and in combination (plasma, UPLC-MS/MS, non-compartmental)
Conditions: male, Sprague-Dawley, rat, plasma, po, 5 mg/kg, AUC(0-∞) of MEM, rat plasma; oral MEM 5.0 mg/kg + HAR 20.0 mg/kg (HAR-L + MEM); n = 8, mean ± SD
metric-name: AUC(0-inf) (ng·h/mL)
Just the number please, in ng·h/mL, no unit attached.

Task item: // query AUC(0-inf) value for entry CC12CC3CC(C)(C1)CC(N)(C3)C2 [MEM, 1-amino-3,5-dimethyladamantane, reference compound]
Reply: 477

----------
Test: Pharmacokinetic study in rats after oral HAR and MEM alone and in combination (plasma, UPLC-MS/MS, non-compartmental)
Conditions: male, Sprague-Dawley, rat, plasma, po, 5 mg/kg, Cmax of MEM, rat plasma; oral MEM 5.0 mg/kg alone (MEM group); n = 8, mean ± SD
metric-name: Cmax
Please report the result as a number followed by the unit.

Task item: // query Cmax value for entry CC12CC3CC(C)(C1)CC(N)(C3)C2 [MEM, 1-amino-3,5-dimethyladamantane, reference compound]
Reply: 84.8 ng/mL

----------
Test: Pharmacokinetic study in rats after oral HAR and MEM alone and in combination (plasma, UPLC-MS/MS, non-compartmental)
Settings: male, Sprague-Dawley, rat, plasma, po, 5 mg/kg, CL/F of MEM, rat plasma; oral MEM 5.0 mg/kg + HAR 20.0 mg/kg (HAR-L + MEM); n = 8, mean ± SD
metric-name: CL/F (mL/min/kg)
Just the number please, in mL/min/kg, no unit attached.

Task item: // query CL/F value for entry CC12CC3CC(C)(C1)CC(N)(C3)C2 [MEM, 1-amino-3,5-dimethyladamantane, reference compound]
Reply: 178

----------
Assay: in vivo
Conditions: male, Sprague-Dawley, rat, in vivo, po, 80 mg/kg, AUC(0-∞) of HAR, rat plasma; oral HAR 80.0 mg/kg + MEM 5.0 mg/kg (HAR-H + MEM); n = 8, mean ± SD
metric-name: AUC(0-inf) (ng·h/mL)
Just the number please, in ng·h/mL, no unit attached.

Task item: // query AUC(0-inf) value for entry COc1ccc2c(c1)[nH]c1c(C)nccc12
Reply: 1110

----------
Assay: Pharmacokinetic study in rats after oral HAR and MEM alone and in combination (plasma, UPLC-MS/MS, non-compartmental)
Conditions: male, Sprague-Dawley, rat, plasma, po, 5 mg/kg, AUC(0-t) of MEM, rat plasma; oral MEM 5.0 mg/kg + HAR 20.0 mg/kg (HAR-L + MEM); n = 8, mean ± SD
metric-name: AUC(0-t)
Please report the result as a number followed by the unit.

Task item: // query AUC(0-t) value for entry CC12CC3CC(C)(C1)CC(N)(C3)C2 [MEM, 1-amino-3,5-dimethyladamantane, reference compound]
Reply: 392 ng·h/mL

----------
Assay: Pharmacokinetic study in rats after oral HAR and MEM alone and in combination (plasma, UPLC-MS/MS, non-compartmental)
Details: male, Sprague-Dawley, rat, plasma, po, 5 mg/kg, Cmax of MEM, rat plasma; oral MEM 5.0 mg/kg + HAR 40.0 mg/kg (HAR-M + MEM); n = 8, mean ± SD
metric-name: Cmax (ng/mL)
Just the number please, in ng/mL, no unit attached.

Task item: // query Cmax value for entry CC12CC3CC(C)(C1)CC(N)(C3)C2 [MEM, 1-amino-3,5-dimethyladamantane, reference compound]
Reply: 74.9

----------
Assay: Pharmacokinetic study in rats after oral HAR and MEM alone and in combination (plasma, UPLC-MS/MS, non-compartmental)
Conditions: male, Sprague-Dawley, rat, plasma, po, 5 mg/kg, AUC(0-∞) of MEM, rat plasma; oral MEM 5.0 mg/kg + HAR 40.0 mg/kg (HAR-M + MEM); n = 8, mean ± SD
metric-name: AUC(0-inf) (ng·h/mL)
Just the number please, in ng·h/mL, no unit attached.

Task item: // query AUC(0-inf) value for entry CC12CC3CC(C)(C1)CC(N)(C3)C2 [MEM, 1-amino-3,5-dimethyladamantane, reference compound]
Reply: 547

----------
Test: in vivo
Settings: male, Sprague-Dawley, rat, in vivo, po, 40 mg/kg, Ke of HAR, rat plasma; oral HAR 40.0 mg/kg + MEM 5.0 mg/kg (HAR-M + MEM); n = 8, mean ± SD
metric-name: k el

Task item: // query k el value for entry COc1ccc2c(c1)[nH]c1c(C)nccc12
Reply: 4.83e-05 s⁻¹
